TARGET ENTITY: KRas^G12R (Homo sapiens, UniProt P01116, G12R)
Construct: […]; biotin (biotinylated)
Sequence (P01116 1-169 isoform P01116-2 G12R): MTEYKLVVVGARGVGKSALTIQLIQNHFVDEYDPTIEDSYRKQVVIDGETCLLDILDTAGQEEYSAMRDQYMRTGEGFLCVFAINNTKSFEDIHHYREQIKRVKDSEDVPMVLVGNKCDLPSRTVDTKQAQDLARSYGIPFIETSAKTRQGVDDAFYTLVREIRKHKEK
METHOD: KRas binding assay (TR-FRET displacement of Cy5 labelled tracer)
Entries and their IC50 values follow.
Answer format: numeric, nM implied, no suffix.

Here are 4 compounds together with their reported answers.
CCc1cccc2cccc(N3CCc4c(nc(OCC56CCCN5CCC6)nc4N4CCCC(c5ccn[nH]5)C4)C3)c12 (stereo not shown) [Example 115]: 460
CCc1cccc2cccc(N3CCc4c(nc(OCC56CCCN5CCC6)nc4N4CCCn5nc(C)cc5C4)C3)c12 [Example 56]: 1810
CCc1cccc2cccc(N3CCc4c(nc(OCC56CCCN5CCC6)nc4N4CCCC(n5ccc(C)n5)C4)C3)c12 (stereo not shown) [Example 94]: 244
CCc1cccc2cccc(N3CCc4c(nc(OCC56CCCN5CCC6)nc4N4CCCC(N5CCCS5(=O)=O)C4)C3)c12 (stereo not shown) [Example 85]: 399

Now look at this entry.
In: Return IC50 for the following compound: CCc1cccc2cccc(N3CCc4c(nc(OCC56CCCN5CCC6)nc4N4CCCC(c5n[nH]c(C6CC6)n5)C4)C3)c12 (stereo not shown) [Example 108]
Out: 381

====

TARGET ENTITY: KRas^G12A (Homo sapiens, UniProt P01116, G12A)
Construct: […]; biotin (biotinylated)
Sequence (P01116 1-169 isoform P01116-2 G12A): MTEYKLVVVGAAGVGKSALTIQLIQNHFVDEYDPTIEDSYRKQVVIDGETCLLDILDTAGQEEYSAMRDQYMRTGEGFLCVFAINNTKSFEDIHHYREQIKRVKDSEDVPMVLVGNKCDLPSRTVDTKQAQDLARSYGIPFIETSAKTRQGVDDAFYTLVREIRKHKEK
METHOD: KRas binding assay (TR-FRET displacement of Cy5 labelled tracer)
OBSERVABLE: pIC50
The value called pIC50 is obtained by taking minus log10 of the concentration in mol/L.

CCc1cccc2cccc(N3CCc4c(nc(OCC56CCCN5CCC6)nc4N4CC[C@H]5C(=O)NC[C@H]5C4)C3)c12: 5.53
CCc1cccc2cccc(N3CCc4c(nc(OCC56CCCN5CCC6)nc4N4CCCC(n5cccn5)C4)C3)c12 (centres unmarked): 6.20
CCc1cccc2cccc(N3CCc4c(nc(OCC56CCCN5CCC6)nc4NCc4c5c(n[nH]c4=O)CCCC5)C3)c12: 5.73
CCc1cccc2cccc(N3CCc4c(nc(OCC56CCCN5CCC6)nc4N4CCCC5(CC(=O)N5)C4)C3)c12 (centres unmarked): 7.35
CCc1cccc2cccc(N3CCc4c(nc(OCC56CCCN5CCC6)nc4N4CCCC(NC(=O)N(C)C)C4)C3)c12 (centres unmarked): 6.53

In: Quote pIC50 with test system KRas^G12A (Homo sapiens, UniProt P01116, G12A) for CCc1cccc2cccc(N3CCc4c(nc(OCC56CCCN5CCC6)nc4NCc4nnc(N)o4)C3)c12
Out: 5.81

In: Quote pIC50 with test system KRas^G12A (Homo sapiens, UniProt P01116, G12A) for CCc1cccc2cccc(N3CCc4c(nc(OCC56CCCN5CCC6)nc4N4C[C@@H](C)C[C@H](O)C4)C3)c12
Out: 6.32

In: Quote pIC50 with test system KRas^G12A (Homo sapiens, UniProt P01116, G12A) for O=C1NC(=O)C2CN(c3nc(OCC45CCCN4CCC5)nc4c3CCN(c3cccc5cccc(Cl)c35)C4)CC12 (centres unmarked)
Out: 6.89

In: Quote pIC50 with test system KRas^G12A (Homo sapiens, UniProt P01116, G12A) for CCc1cccc2cccc(N3CCc4c(nc(OCC56CCCN5CCC6)nc4N4CCCC(P(C)(C)=O)C4)C3)c12 (centres unmarked)
Out: 5.87

In: Quote pIC50 with test system KRas^G12A (Homo sapiens, UniProt P01116, G12A) for CCc1cccc2cccc(N3CCc4c(nc(OCC56CCCN5CCC6)nc4N4CCCN(C(N)=O)CC4)C3)c12
Out: 6.18

In: Quote pIC50 with test system KRas^G12A (Homo sapiens, UniProt P01116, G12A) for CCc1cccc2cccc(N3CCc4c(nc(OCC56CCCN5CCC6)nc4N4CCCC(c5n[nH]cc5NC(C)=O)C4)C3)c12 (centres unmarked)
Out: 5.65

In: Quote pIC50 with test system KRas^G12A (Homo sapiens, UniProt P01116, G12A) for O=C1NC(=O)C2CN(c3nc(OCC45CCCN4CCC5)nc4c3CCN(c3cccc5cccc(Br)c35)C4)CC12 (centres unmarked)
Out: 7.23

In: Quote pIC50 with test system KRas^G12A (Homo sapiens, UniProt P01116, G12A) for CCc1cccc2cccc(N3CCc4c(nc(OCC56CCCN5CCC6)nc4N4CCC(CO)C(O)C4)C3)c12 (centres unmarked)
Out: 6.65

====

TARGET ENTITY: KRas^G12R (Homo sapiens, UniProt P01116, G12R)
Construct: […]; biotin (biotinylated)
METHOD: KRas binding assay (TR-FRET displacement of Cy5 labelled tracer)
pIC50: −log10 of the molar value.
Reported pIC50 maps to class as: low interval (below 6), middle interval (6 to below 7), high interval (7 or more)

CCc1cccc2cccc(N3CCc4c(nc(OCC56CCCN5CCC6)nc4NCCNc4ncccc4C#N)C3)c12 [Example 154]: low interval
CCc1c(F)ccc2cc(O)cc(N3CCc4c(nc(OC[C@@]56CCCN5C[C@H](F)C6)nc4N4CCCn5nc(C(=O)N(C)C)c(Cl)c5C4)C3)c12 [Example 192]: high interval
Cc1cccc2cccc(N3CCc4c(nc(OCC56CCCN5CCC6)nc4N4CC5C(=O)NC(=O)C5C4)C3)c12 (centres unmarked) [Example 80]: middle interval

In: # bin lookup: classify CCc1c(F)ccc2cc(O)cc(N3CCc4c(nc(OC[C@@]56CCCN5C[C@H](F)C6)nc4N4CCCn5nc(C(=O)N6CCCC6)cc5C4)C3)c12 [Example 191] by its pIC50
Out: high interval

In: # bin lookup: classify CCc1cccc2cccc(N3CCc4c(nc(OCC56CCCN5CCC6)nc4NCc4nc5ncccc5o4)C3)c12 [Example 157] by its pIC50
Out: low interval

In: # bin lookup: classify CCc1cccc2cccc(N3CCc4c(nc(OCC56CCCN5CCC6)nc4N(C)CC4(O)CC4)C3)c12 [Example 98] by its pIC50
Out: middle interval

In: # bin lookup: classify CCc1c(F)ccc2cc(O)cc(N3CCc4c(nc(OC[C@@]56CCCN5C[C@H](F)C6)nc4N4CCCC5(CNC(=O)N5)C4)C3)c12 (some centres unmarked) [Example 62] by its pIC50
Out: high interval

====

Test system: MKN1 cells, pERK
METHOD: Inhibition of KRas phosphorylation of ERK (Cisbio HTRF Advanced pERK assay)
Assay type: cell-based
CONDITION: Homo sapiens, MKN-1, 3 h, read-out: Inhibition (HTRF IC50 nM) of KRas-mediated Phosphorylation of ERK, MKN1
OBSERVABLE: IC50 (nM)
Answer format: numeric, nM implied, no suffix.

Here are 2 compounds together with their reported answers.
O=C1NC(=O)C2(CCCN(c3nc(OC[C@@]45CCCN4C[C@H](F)C5)nc4c3CCN(c3cc(O)cc5ccc(F)c(Cl)c35)C4)C2)N1 (stereo partly drawn) [Example 69]: 41
CCc1c(F)ccc2cc(O)cc(N3CCc4c(nc(OC[C@@]56CCCN5C[C@H](F)C6)nc4N4CCCC(O)CC4)C3)c12 (stereo partly drawn) [Example 30]: 16

Now look at this entry.
In: Return IC50 for the following compound: O=C1NC(=O)C2(CCCN(c3nc(OC[C@@]45CCCN4C[C@H](F)C5)nc4c3CCN(c3cc(O)cc5ccc(F)c(Br)c35)C4)C2)N1 (stereo partly drawn) [Example 217]
Out: 21

====

TARGET ENTITY: KRas^G13D (Homo sapiens, UniProt P01116, G13D)
Sequence (P01116 1-169 isoform P01116-2 G13D): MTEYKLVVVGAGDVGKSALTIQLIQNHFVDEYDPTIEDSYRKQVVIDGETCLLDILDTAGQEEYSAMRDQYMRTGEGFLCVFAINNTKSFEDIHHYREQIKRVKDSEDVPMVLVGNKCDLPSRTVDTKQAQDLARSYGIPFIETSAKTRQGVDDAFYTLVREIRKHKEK
METHOD: biochemical
Criterion: IC50 strictly under 900 nM. Met: satisfied. Not met: not satisfied.

Example results:
CCc1cccc2cccc(N3CCc4c(nc(OCC56CCCN5CCC6)nc4N4CCCC(c5nc(N)n(C)n5)C4)C3)c12 (centres unmarked): satisfied
CCc1cccc2cccc(N3CCc4c(nc(OCC56CCCN5CCC6)nc4N4C[C@@H]5C(=O)NC(=O)[C@@H]5C4)C3)c12: satisfied
CCc1c(F)ccc2cc(O)cc(N3CCc4c(nc(OC[C@@]56CCCN5C[C@H](F)C6)nc4N4CCC(c5[nH]ncc5N)C4)C3)c12 (some centres unmarked): satisfied

In: IC50 under 900 nM? Item: CCc1cccc2cccc(N3CCc4c(nc(OCC56CCCN5CCC6)nc4N4CCCC5(C4)NC(=O)NC5=O)C3)c12 (centres unmarked)
Out: satisfied

In: IC50 under 900 nM? Item: CCc1cccc2cccc(N3CCc4c(nc(OCC56CCCN5CCC6)nc4NCc4ccc5nncn5c4)C3)c12
Out: not satisfied

In: IC50 under 900 nM? Item: CCc1cccc2cccc(N3CCc4c(nc(OCC56CCCN5CCC6)nc4N4CCC(OCC(N)=O)CC4)C3)c12
Out: not satisfied

In: IC50 under 900 nM? Item: O=C1NC(=O)C2CN(c3nc(OCC45CCCN4CCC5)nc4c3CCN(c3cccc5cccc(F)c35)C4)CC12 (centres unmarked)
Out: not satisfied

In: IC50 under 900 nM? Item: CCc1cccc2cccc(N3CCc4c(nc(OCC56CCCN5CCC6)nc4NC4CN(C(N)=O)C4)C3)c12
Out: not satisfied

In: IC50 under 900 nM? Item: CCc1cccc2cccc(N3CCc4c(nc(OCC56CCCN5CCC6)nc4NC4CC5CC5C4)C3)c12 (centres unmarked)
Out: not satisfied

In: IC50 under 900 nM? Item: CCc1cccc2cccc(N3CCc4c(nc(OCC56CCCN5CCC6)nc4N4CCCN(C(=O)c5ccco5)CC4)C3)c12
Out: satisfied

In: IC50 under 900 nM? Item: CCc1cccc2cccc(N3CCc4c(nc(OCC56CCCN5CCC6)nc4N4CCCC(n5ccc(C)n5)C4)C3)c12 (centres unmarked)
Out: satisfied

In: IC50 under 900 nM? Item: CCc1cccc2cccc(N3CCc4c(nc(OCC56CCCN5CCC6)nc4N4CCCC(c5nnc(CO)n5C)C4)C3)c12 (centres unmarked)
Out: not satisfied

In: IC50 under 900 nM? Item: CCc1cccc2cccc(N3CCc4c(nc(OCC56CCCN5CCC6)nc4NC[C@H]4CCC(=O)N4)C3)c12
Out: not satisfied
